Reported IC50 by item:
molecular target: AHR (Homo sapiens, UniProt P35869); construct: U87 MG glioblastoma cells (ATCC #HTB-14) endogenously expressing AHR; endogenous in cells; host or cells: U87 MG glioblastoma cells (ATCC #HTB-14); assay: In vitro assay 1: antagonism in human cell line (AHR transactivation, firefly luciferase reporter, kynurenic acid prestimulated); type: cell-based; conditions: AHR Antagonism Human IC50 [M]
Sequence (P35869 11-848): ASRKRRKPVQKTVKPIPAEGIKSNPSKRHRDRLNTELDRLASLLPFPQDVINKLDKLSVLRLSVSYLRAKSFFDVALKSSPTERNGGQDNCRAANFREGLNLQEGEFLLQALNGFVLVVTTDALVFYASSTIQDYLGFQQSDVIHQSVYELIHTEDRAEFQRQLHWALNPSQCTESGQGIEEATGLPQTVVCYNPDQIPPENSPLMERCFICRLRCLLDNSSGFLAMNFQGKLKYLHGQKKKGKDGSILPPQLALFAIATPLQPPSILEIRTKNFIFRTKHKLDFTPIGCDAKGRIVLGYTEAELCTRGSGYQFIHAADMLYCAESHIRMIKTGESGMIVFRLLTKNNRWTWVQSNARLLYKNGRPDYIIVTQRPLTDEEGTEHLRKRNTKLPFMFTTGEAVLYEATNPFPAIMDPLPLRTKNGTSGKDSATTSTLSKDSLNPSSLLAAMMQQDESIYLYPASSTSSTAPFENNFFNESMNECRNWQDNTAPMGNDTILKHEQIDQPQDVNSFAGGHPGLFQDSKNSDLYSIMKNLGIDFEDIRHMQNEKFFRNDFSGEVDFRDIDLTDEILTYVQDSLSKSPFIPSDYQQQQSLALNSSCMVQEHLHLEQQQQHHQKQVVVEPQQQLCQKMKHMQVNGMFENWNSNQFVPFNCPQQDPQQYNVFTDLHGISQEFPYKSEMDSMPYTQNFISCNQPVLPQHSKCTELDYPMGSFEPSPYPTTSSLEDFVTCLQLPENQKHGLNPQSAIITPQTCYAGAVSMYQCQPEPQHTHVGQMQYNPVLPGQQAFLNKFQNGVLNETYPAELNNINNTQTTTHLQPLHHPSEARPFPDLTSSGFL
Measured Endpoint: IC50 (M)

INSERT INTO results (molecule, subject_of_test, assay_value) VALUES
  ('COc1ccc(-c2nc3c4ccccc4nc(NC4CNCCNC4=O)n3n2)cc1 (single isomer, unassigned) [Example 36]', 'AHR (Homo sapiens, UniProt P35869)', '8.01e-09'),
  ('CC(C)c1cccc2c1nc(N[C@@H]1CCCCNC1=O)n1nc(-c3ccc(F)cc3)nc21 [Example 393]', 'AHR (Homo sapiens, UniProt P35869)', '4.34e-08'),
  ('O=C1NCCNC[C@H]1Nc1nc2c(Br)cccc2c2nc(-c3ccccc3OC(F)(F)F)nn12 [Example 266]', 'AHR (Homo sapiens, UniProt P35869)', '3.29e-09'),
  ('Cc1ccccc1-c1nc2c3ccccc3nc(NC3CCNC3=O)n2n1 (single isomer, unassigned) [Example 51]', 'AHR (Homo sapiens, UniProt P35869)', '3.09e-08'),
  ('O=C1NCCNC[C@H]1Nc1nc2cccc(C(F)(F)F)c2c2nc(-c3ccc(F)cc3)nn12 [Example 287]', 'AHR (Homo sapiens, UniProt P35869)', '6.55e-06'),
  ('COc1ccc(-c2nc3c4ccccc4nc(N[C@@H]4CCCCNC4=O)n3n2)cc1C(F)(F)F [Example 722]', 'AHR (Homo sapiens, UniProt P35869)', '7.2e-09'),
  ('Cc1cc(-c2nc3c4ccccc4nc(N[C@@H]4CCCNC4=O)n3n2)cs1 [Example 354]', 'AHR (Homo sapiens, UniProt P35869)', '4.05e-08'),
  ('COc1ccc(-c2nc3c4ccccc4nc(N[C@H]4CCCCNC4=O)n3n2)c(OC(F)(F)F)c1 [Example 509]', 'AHR (Homo sapiens, UniProt P35869)', '1.03e-07'),
  ('Cc1nn(C(C)C)cc1-c1nc2c3cccc(C(F)(F)F)c3nc(N[C@@H]3CCCCNC3=O)n2n1 [Example 748]', 'AHR (Homo sapiens, UniProt P35869)', '3.9e-10'),
  ('Cc1cc(-c2nc3c4ccccc4nc(N[C@H]4CCCCNC4=O)n3n2)cs1 [Example 353]', 'AHR (Homo sapiens, UniProt P35869)', '2.36e-07'),
  ('CCC[C@@H](Nc1nc2ccccc2c2nc(-c3cc(C(F)(F)F)ccn3)nn12)C(=O)NC [Example 368]', 'AHR (Homo sapiens, UniProt P35869)', '5e-08'),
  ('CC(C)[C@@H](Nc1nc2ccccc2c2nc(-c3ccccc3)nn12)C(N)=O [Example 3]', 'AHR (Homo sapiens, UniProt P35869)', '1.82e-09'),
  ('COc1ccc(-c2nc3c4ccccc4nc(N[C@@H]4CCCCNC4=O)n3n2)c(C(F)(F)F)c1 [Example 512]', 'AHR (Homo sapiens, UniProt P35869)', '1.04e-08'),
  ('CC[C@@H](Nc1nc2ccccc2c2nc(-c3ccccc3S(C)(=O)=O)nn12)C(N)=O [Example 451]', 'AHR (Homo sapiens, UniProt P35869)', '7.16e-06'),
  ('O=C1NCCCC[C@H]1Nc1nc2ccccc2c2nc(-c3cnn(C4CCOCC4)c3)nn12 [Example 600]', 'AHR (Homo sapiens, UniProt P35869)', '4.48e-08'),
  ('COCc1noc(-c2nc3c4ccccc4nc(N[C@@H]4CCCCNC4=O)n3n2)n1 [Example 303]', 'AHR (Homo sapiens, UniProt P35869)', '4.52e-07');
